The entries below come with measured GI50 values attached.
System: NCI-H23
EXPERIMENTAL_DETAILS: NCI tumour cell line growth inhibition, 48 h
Activity calls are given as the source filed them. No stated cut-off is given here; in the data, active = GI50 up to about 1.1 µM and inactive = higher.
QUANTITY: GI50

INSERT INTO assay_data (compound, quantity, data_value) VALUES
  ('CN(C)CCNC(=O)c1cccc2[nH]c(-c3ccccc3)nc12', 'GI50', '17.4 µM (inactive)'),
  ('CC(=O)C=C1Nc2ccccc2N1', 'GI50', '> 100 µM (inactive)'),
  ('CC1(C)[C@@H]2CC[C@]1(C)[C@H](OC(=O)/C=C/c1ccccc1)C2', 'GI50', '21.7 µM (inactive)'),
  ('CSc1c(C#N)c(N)n(-c2ccc(Cl)cc2)c(=O)c1C#N', 'GI50', '> 100 µM (inactive)'),
  ('CC(=O)C(C)C(=O)N1C(=O)N(C)C2(C)N(C)C(=O)NC12C (stereo not given)', 'GI50', '> 100 µM (inactive)'),
  ('C/C(=N\Nc1nc2ccccc2[nH]1)c1cccc[n+]1[O-]', 'GI50', '> 100 µM (inactive)'),
  ('C[N+]1(C)C2CC(OC(=O)C(CO)c3ccccc3)CC1C1OC12 (stereo not given)', 'GI50', '> 100 µM (inactive)'),
  ('O=P(Oc1ccccc1)(Oc1ccccc1)Oc1c[nH]c2ccccc12', 'GI50', '10.1 µM (inactive)'),
  ('Cc1cc2c(cc1C)N1Cc3c(ccc(C)c3C)N(C2)C1.Cc1cc2c(cc1C)N1Cc3cc(C)c(C)cc3N(C2)C1', 'GI50', '92.5 µM (inactive)'),
  ('CN(C)c1ccc(/C=C2\C[C@H]3[C@@H]4CC=C5C[C@@H](N6CCCC6)CC[C@]5(C)[C@H]4CC[C@]3(C)[C@H]2O)cc1', 'GI50', '3.66 µM (inactive)');

---

Test system: UACC-257
EXPERIMENTAL_DETAILS: NCI tumour cell line growth inhibition, 48 h
Active and inactive are the calls of the source. Rule as the data show it: active = GI50 up to about 1.1 µM and inactive = higher.
QUANTITY: GI50

INSERT INTO measurements (molecule, data_value) VALUES
  ('COc1ccccc1/C=C1\C(=O)N(C(=O)Cc2ccccc2)N=C1C', '> 100 µM (inactive)'),
  ('CC(=O)c1ccc(NC(=O)COC(=O)c2cccc3c(=O)c4ccccc4[nH]c23)cc1', '57.7 µM (inactive)'),
  ('CCCCCCCCCCCCCCCCCCOP1(=O)OCCO1', '> 100 µM (inactive)'),
  ('COc1ccccc1Cc1nc(-c2ccccc2)nn(C2OC(COC(C)=O)C(OC(C)=O)C(OC(C)=O)C2OC(C)=O)c1=S (stereo unspecified)', '54.3 µM (inactive)'),
  ('C[Si](C)(C)C#Cc1cc(-c2nc3ccccc3s2)ccc1N', '19.5 µM (inactive)'),
  ('O=C1Nc2ccccc2C1(O)Cc1ccccn1 (stereo unspecified)', '> 100 µM (inactive)'),
  ('COc1cc2c(cc1O)[C@H](C)C(c1ccc(Cl)cc1)O2 (stereo partly specified)', '19.8 µM (inactive)'),
  ('c1ccc(-c2nnn(CCN3CCCCC3)n2)cc1', '> 100 µM (inactive)'),
  ('COC(=O)C1=CC2OC13CC1CCC3(C2=O)C1(C)C (stereo unspecified)', '10.4 µM (inactive)'),
  ('CCCCCCCCCCCCCC(=O)CC(=O)c1c(O)cccc1O', '32.4 µM (inactive)'),
  ('Cc1c(C(=O)CC(=O)C(=O)Nc2ccccc2C(F)(F)F)[n+]([O-])c2ccccc2[n+]1[O-]', '18.4 µM (inactive)');

---

System: MCF7
EXPERIMENTAL_DETAILS: NCI tumour cell line growth inhibition, 48 h
Active and inactive are the calls of the source. No stated cut-off is given here; in the data, active = GI50 up to about 1.1 µM and inactive = higher.
QUANTITY: GI50

INSERT INTO measurements (compound, quantity, data_value) VALUES
  ('CSC(=O)c1sc(SC)[n+](-c2ccccc2)c1O', 'GI50', '25.4 µM (inactive)'),
  ('CSc1csc(-c2ccc(-c3ccc(-c4cc(SC)cs4)s3)s2)c1', 'GI50', '> 100 µM (inactive)'),
  ('CCCC(=O)C1=C(O)C(Cc2c(O)c(C)c(O)c(C(=O)CCC)c2O)=C(O)C(C)(C)C1=O', 'GI50', '21.9 µM (inactive)'),
  ('CC12CC(c3ccccc3O1)C(C(=O)Nc1cccc(F)c1)C(=O)N2 (stereo unspecified)', 'GI50', '44.7 µM (inactive)'),
  ('O=c1c(Cl)nsnc1Cl', 'GI50', '6.22 µM (inactive)'),
  ('CC1(C)CS(=O)(=O)CC(C)(C)C(=N/N)/C1=N\N', 'GI50', '> 100 µM (inactive)');

---

System: OVCAR-4
EXPERIMENTAL_DETAILS: NCI tumour cell line growth inhibition, 48 h
The source made the active and inactive calls. No stated cut-off is given here; in the data, active = GI50 up to about 1.1 µM and inactive = higher.
QUANTITY: GI50

INSERT INTO assay_data (compound, system_name, quantity, data_value) VALUES
  ('CC(C)(CN1CCCCC1)C(=O)/C=C/c1ccc(Cl)c(Cl)c1', 'OVCAR-4', 'GI50', '1.51 µM (inactive)'),
  ('Cc1ccc(/C=C/c2n[nH]c(N/N=C/c3ccc4c(c3)OCO4)nc2=O)cc1', 'OVCAR-4', 'GI50', '19.3 µM (inactive)'),
  ('CC1C(C)(C)C23CC12C1(OCCO1)C3Br (stereo not given)', 'OVCAR-4', 'GI50', '> 100 µM (inactive)'),
  ('COC(=O)[C@H](Cc1ccccc1)NC(=O)c1ccc(CNC(=O)/C=C/c2ccc(OCc3ccccc3)cc2)cc1', 'OVCAR-4', 'GI50', '6.55 µM (inactive)'),
  ('COc1c2cc([N+](=O)[O-])cc1CN(C(=O)C(F)(F)F)CCOCCN(C(=O)C(F)(F)F)C2', 'OVCAR-4', 'GI50', '> 100 µM (inactive)'),
  ('Cc1cc2c(c(S(=O)(=O)c3ccc(Cl)cc3[N+](=O)[O-])c1)NCCC2', 'OVCAR-4', 'GI50', '15.3 µM (inactive)'),
  ('COC(=O)N/N=C(/CC1(O)C(=O)Nc2ccc([N+](=O)[O-])cc21)c1ccccc1 (stereo not given)', 'OVCAR-4', 'GI50', '47.3 µM (inactive)'),
  ('C=C(C)C(=O)[C@@]12C(=O)[C@@H](C)CC[C@H]1[C@H](C)C[C@@H]2C=C(C)C', 'OVCAR-4', 'GI50', '28.8 µM (inactive)'),
  ('CN1c2ccccc2N(C)C2C1N(C)c1ccccc1N2C (stereo not given)', 'OVCAR-4', 'GI50', '26 µM (inactive)'),
  ('O=C1C[C@H](COCc2ccccc2)NC(=O)C[C@H](COCc2ccccc2)NC(=O)C[C@H](COCc2ccccc2)N1', 'OVCAR-4', 'GI50', '> 100 µM (inactive)'),
  ('COc1ccc2c3c1OC1C(F)C=CC4(O)C(C2)NCCC314 (stereo not given)', 'OVCAR-4', 'GI50', '1.95 µM (inactive)'),
  ('N=c1oc2ccc3ccccc3c2cc1C(N)=O', 'OVCAR-4', 'GI50', '58.6 µM (inactive)'),
  ('Cc1ccc(-c2nc3n(c2/C=N\N=C(N)N)CCS3)cc1', 'OVCAR-4', 'GI50', '16.6 µM (inactive)'),
  ('COc1cc(C2C(C(=O)O)=C(COC(C)=O)Oc3cc4c(cc32)OCO4)cc(OC)c1OC (stereo not given)', 'OVCAR-4', 'GI50', '> 100 µM (inactive)'),
  ('Cc1nc(C(N)=S)sc1C(=O)CC(=O)C(=O)Nc1ccccc1[N+](=O)[O-]', 'OVCAR-4', 'GI50', '> 100 µM (inactive)'),
  ('Fc1ccccc1C1CC(C(c2ccccc2)c2ccccc2)=Nc2ccccc2S1 (stereo not given)', 'OVCAR-4', 'GI50', '10.9 µM (inactive)'),
  ('COC(=O)[C@@H]1O[C@]12[C@@H](CO[Si](C)(C)C(C)(C)C)O[C@@H](n1cc(C)c(=O)[nH]c1=O)[C@@H]2O[Si](C)(C)C(C)(C)C', 'OVCAR-4', 'GI50', '32.5 µM (inactive)'),
  ('CN(C)CC1CCCC(CN2CCCCC2)C1=O (stereo not given)', 'OVCAR-4', 'GI50', '4.25 µM (inactive)'),
  ('O=c1nc(NC(c2ccccc2)(c2ccccc2)c2ccccc2)ccn1CCO', 'OVCAR-4', 'GI50', '63.2 µM (inactive)'),
  ('CC1(C)CC(=O)C(C(CC(c2ccccc2)c2cc3c(cc2O)OCO3)C2=C(O)CC(C)(C)CC2=O)=C(O)C1 (stereo not given)', 'OVCAR-4', 'GI50', '> 10 µM (inactive)');

---

Tested on: BT-549
EXPERIMENTAL_DETAILS: NCI tumour cell line growth inhibition, 48 h
Calls of active or inactive are those of the source. Cut-off read from the data, not from the text of the source: active = GI50 up to about 1.1 µM and inactive = higher.
QUANTITY: GI50

INSERT INTO measurements (compound, system_name, data_value) VALUES
  ('COc1cc2c(c(OC)c1)C(C)=NC(C)C2 (stereo unspecified)', 'BT-549', '> 100 µM (inactive)'),
  ('C(=N\N=C1NCCCN1)/c1ccc2ccccc2c1', 'BT-549', '17.4 µM (inactive)'),
  ('CC(=O)OCC1OC(N2C(=O)NC(=O)C3C=C4CCCCC4=CC32)C(OC(C)=O)C1OC(C)=O (stereo unspecified)', 'BT-549', '> 100 µM (inactive)'),
  ('Oc1ccc(CCNCc2cc3c(cc2Br)OCO3)cc1', 'BT-549', '92.5 µM (inactive)'),
  ('CCOC(=O)/C=C(\C(=O)OCC)n1ccc(N)nc1=O', 'BT-549', '38.6 µM (inactive)'),
  ('CCOC(=O)CCSS(=O)(=O)C(F)(F)F', 'BT-549', '> 100 µM (inactive)'),
  ('Nc1ccc(-c2nnc(-c3c(Cl)c(Cl)c(Cl)c(Cl)c3-c3nc4cc(C(=O)c5ccccc5)ccc4[nH]3)o2)cc1', 'BT-549', '24.6 µM (inactive)'),
  ('O=P(Oc1ccccc1)(Oc1ccccc1)Oc1c[nH]c2ccccc12', 'BT-549', '17 µM (inactive)'),
  ('COC(=O)C(=O)C(C(=O)C(=O)Nc1ccc([N+](=O)[O-])cc1[N+](=O)[O-])c1nc2ccc(Cl)cc2nc1O (stereo unspecified)', 'BT-549', '> 100 µM (inactive)'),
  ('O=C1NC(Nc2cccc(Cl)c2)=N/C1=C\c1ccc(Cl)c(Cl)c1', 'BT-549', '12.4 µM (inactive)'),
  ('O=C(/C=C1\Nc2ccccc2N=C1NC12CC3CC(CC(C3)C1)C2)c1ccc(Br)cc1', 'BT-549', '> 10 µM (inactive)');
